src = ChEMBL document CHEMBL2413031

Test system: MeWo
Assay: Cytotoxicity against human MeWo cells assessed as cell viability after 48 hrs by MTT assay
Assay type: functional, cell-based

# structureAsSmiles, target, IC50 (µM)
records = [
    ("COc1cc(/C=C/C(=O)CC(=O)/C=C/c2ccc(O)c(OC)c2)ccc1O", "MeWo", 35.5),
    ("COc1cccc(/C=C/c2cc(-c3ccc(O)c(OC)c3)[nH]n2)c1", "MeWo", 3.6),
    ("COc1cc(/C=C/c2cc(-c3ccc(O)c(OC)c3)[nH]n2)cc(OC)c1", "MeWo", 4.8),
    ("COc1cc(/C=C/c2cc(-c3ccc(O)c(OC)c3)[nH]n2)ccc1O", "MeWo", 3.7),
    ("COc1cc(/C=C/c2cc(-c3ccc(O)cc3)[nH]n2)cc(OC)c1", "MeWo", 5.7),
]
